Data provenance: patent US6472348B1

Overview of reported Phytotoxicity Go across a group of compounds:
System: cotton (Go)
Assay: Test Example 4: crop plant selectivity by upland field soil treatment (cotton), phytotoxicity
Type: in vivo
Design: scale not given here
Conditions: dose 1.6 g ai/10 a, evaluated 21st day after application

Solved cases (3 shown):
# input Would you mind telling me what Phytotoxicity Go value was observed for Cc1cc2c(-c3ccc(C(F)(F)F)n(C)c3=O)c(F)cc(Cl)c2o1 [Compound 4-1] ?
# output 0

# input Would you mind telling me what Phytotoxicity Go value was observed for C=CCN1C(=O)COc2cc(F)c(-c3ccc(C(F)(F)F)n(C)c3=O)cc21 [Compound 2-7] ?
# output 0

# input Would you mind telling me what Phytotoxicity Go value was observed for C#CCOc1cc(-c2ccc(C(F)(F)F)n(C)c2=O)c(F)cc1Cl [1-18] ?
# output 1

---
# input Would you mind telling me what Phytotoxicity Go value was observed for C#CC(C)Oc1cc(-c2ccc(C(F)(F)F)n(C)c2=O)c(F)cc1Cl (stereo not shown) [1-17] ?
# output 0
